All values here come from paper PMC5510889.

# Experimental System: IsdI (Staphylococcus aureus, UniProt Q7A827)
# Sequence (Q7A827 whole entry): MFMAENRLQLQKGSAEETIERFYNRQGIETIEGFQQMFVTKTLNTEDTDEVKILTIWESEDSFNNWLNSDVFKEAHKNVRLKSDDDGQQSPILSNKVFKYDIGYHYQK
# Protocol Description: Fluorescence-detected heme titration
# Format: binding
Reported Endpoint: pKd
Worth noting: pKd values are minus log10 of concentrations stated in mol/L.

Query: GET pKd | system: IsdI (Staphylococcus aureus, UniProt Q7A827) | item: C=CC1=C(C)c2cc3[n-]c(cc4nc(cc5[n-]c(cc1n2)c(C)c5CCC(=O)O)C(CCC(=O)O)=C4C)c(C)c3C=C.[Fe+3] [heme]
Result: 7.89

----------
# Experimental System: IsdI (Staphylococcus aureus)
# Protocol Description: UV/Vis absorption-detected heme titration
# Format: binding
Reported Endpoint: Kd (nM)
Note: unit nM is implicit; provide only the numeric part.

Query: Respond only with Kd recorded for `C=CC1=C(C)c2cc3[n-]c(cc4nc(cc5[n-]c(cc1n2)c(C)c5CCC(=O)O)C(CCC(=O)O)=C4C)c(C)c3C=C.[Fe+3]`
Result: 15
